Reported percent inhibition at 0.2 µM by item:
# TESTED ON: PYL2-HAB1 (Arabidopsis thaliana)
# Construct: 6xHis (N); made in house; host or cells: E. coli BL21[DE3]pLysS (stated for GST-HAB1)
# Sequence (O80992 whole entry): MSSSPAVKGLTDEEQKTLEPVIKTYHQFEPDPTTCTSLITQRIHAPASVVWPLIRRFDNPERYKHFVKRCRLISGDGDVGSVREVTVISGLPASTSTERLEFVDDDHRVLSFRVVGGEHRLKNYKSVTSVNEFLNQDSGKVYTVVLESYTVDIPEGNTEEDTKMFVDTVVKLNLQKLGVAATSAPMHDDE
# Sequence (Q9CAJ0 23-511 partner): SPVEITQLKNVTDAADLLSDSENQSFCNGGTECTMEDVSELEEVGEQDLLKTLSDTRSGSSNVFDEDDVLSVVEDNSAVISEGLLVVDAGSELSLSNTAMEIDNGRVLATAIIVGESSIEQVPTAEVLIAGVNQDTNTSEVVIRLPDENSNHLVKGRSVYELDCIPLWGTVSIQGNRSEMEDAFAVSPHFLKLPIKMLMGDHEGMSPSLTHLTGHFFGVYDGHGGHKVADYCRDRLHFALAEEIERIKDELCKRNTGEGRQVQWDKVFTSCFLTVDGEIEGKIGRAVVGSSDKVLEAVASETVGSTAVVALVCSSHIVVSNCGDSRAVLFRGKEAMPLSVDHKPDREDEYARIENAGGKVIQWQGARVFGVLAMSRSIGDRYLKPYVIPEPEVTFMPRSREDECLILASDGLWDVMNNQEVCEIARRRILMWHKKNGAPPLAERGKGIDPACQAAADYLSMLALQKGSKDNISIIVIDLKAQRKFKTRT
# ASSAY INFO: PP2C activity assay, PYL2-HAB1 inhibition
# Format: biochemical
# REPORTED CONDITIONS: 200 nM test compound, 100 nM HAB1 PP2C, 200 nM receptor; read-out: % Inhibition of PYR/PYL-HAB1 at 200 nM: PYL2
A bare number is not enough; add the unit after it.

// worked examples, percent inhibition at 0.2 µM included
COMPOUND | percent inhibition at 0.2 µM
CCCN1C(=O)CCc2cc(NS(=O)(=O)Cc3ccccc3C#N)cc(F)c21 [HQ12] | 94.5%
CCCN1C(=O)CCc2cc(NS(=O)(=O)Cc3cccc(Cl)c3)cc(F)c21 [HQ27] | 88%
CCCN1C(=O)CCc2cc(NS(=O)(=O)Cc3cccc(Br)c3)cc(F)c21 [HQ23] | 87.8%
CCCN1C(=O)CCc2cc(NS(=O)(=O)Cc3ccc(Br)cc3)cc(F)c21 [HQ25] | 42.8%

Request the reported percent inhibition at 0.2 µM associated with CCCN1C(=O)CCc2cc(NS(=O)(=O)Cc3ccc(C#N)cc3F)cc(F)c21 [HQ11]
73.5%

Request the reported percent inhibition at 0.2 µM associated with CCCN1C(=O)CCc2cc(NS(=O)(=O)Cc3ccc(C#N)cc3)cc(F)c21 [HQ10]
77.2%

Request the reported percent inhibition at 0.2 µM associated with CCCN1C(=O)CCc2cc(NS(=O)(=O)Cc3ccc(C)cc3)ccc21 [Quinabactin]
44%

Request the reported percent inhibition at 0.2 µM associated with CCCN1C(=O)CCc2cc(NS(=O)(=O)Cc3ccc(F)cc3F)cc(F)c21 [HQ4]
69.3%

Request the reported percent inhibition at 0.2 µM associated with CCCN1C(=O)CCc2cc(NS(=O)(=O)Cc3ccc(F)cc3Cl)cc(F)c21 [HQ13]
94.1%
